Target: NPR-11 mutants (Caenorhabditis elegans, UniProt Q18179, E196Q)
Sequence (Q18179 whole entry E196Q): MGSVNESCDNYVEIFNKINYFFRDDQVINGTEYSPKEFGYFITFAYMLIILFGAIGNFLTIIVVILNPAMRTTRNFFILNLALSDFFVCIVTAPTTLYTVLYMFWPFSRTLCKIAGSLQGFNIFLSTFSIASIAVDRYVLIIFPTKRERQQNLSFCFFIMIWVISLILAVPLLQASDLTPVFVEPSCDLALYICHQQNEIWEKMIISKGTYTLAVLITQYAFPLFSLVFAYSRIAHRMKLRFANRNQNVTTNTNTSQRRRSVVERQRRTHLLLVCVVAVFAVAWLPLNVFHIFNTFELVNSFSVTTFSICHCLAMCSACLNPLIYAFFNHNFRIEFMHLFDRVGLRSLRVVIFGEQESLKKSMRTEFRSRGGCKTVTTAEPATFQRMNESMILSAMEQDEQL
Test: cAMP reporter gene assay
Assay type: cell-based, C. elegans
pEC50: −log10 of the molar value. Where no end group is shown, it is not given here.
measure.name: pEC50

Data request: Dear colleague, I am looking for the recorded pEC50 of the following substance: GLGPRPLRF-NH2 [FLP-21]
Data returned: < 5.00

###

Biological target: NPR-11 mutants (Caenorhabditis elegans, UniProt Q18179, E196A)
Sequence (Q18179 whole entry E196A): as the sequence (Q18179 whole entry E196Q) above, with Q196A counted along it
Assay: cAMP reporter gene assay
Format: cell-based, C. elegans
pEC50: −log10 of the molar value. Where no end group is shown, it is not given here.
measure.name: pEC50

Data request: Give pEC50 (NPR-11 mutants (Caenorhabditis elegans, UniProt Q18179, E196A)) of the following substance: GLGPRPLRF-NH2 [FLP-21]
Data returned: < 5.00
